target-of-assay: Serine/threonine-protein kinase Sgk2 (Homo sapiens) (UniProt Q9HBY8)
Sequence (whole entry): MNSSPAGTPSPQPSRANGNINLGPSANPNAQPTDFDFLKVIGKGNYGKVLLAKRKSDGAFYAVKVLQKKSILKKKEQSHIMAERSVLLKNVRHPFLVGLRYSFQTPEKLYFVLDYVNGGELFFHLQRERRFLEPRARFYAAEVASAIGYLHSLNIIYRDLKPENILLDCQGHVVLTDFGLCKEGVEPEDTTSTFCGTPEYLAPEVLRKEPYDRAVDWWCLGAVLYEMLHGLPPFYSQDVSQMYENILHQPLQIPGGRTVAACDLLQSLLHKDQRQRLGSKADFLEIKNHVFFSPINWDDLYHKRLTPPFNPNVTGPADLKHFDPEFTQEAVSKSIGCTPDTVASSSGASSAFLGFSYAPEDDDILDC
settings: at 1 µM
Description: GSK_PKIS: SGK2 mean inhibition at 1 uM [Nanosyn]
reported-property: inhibition (%)
Numbers only, in %.

molecule="CC1=C(C(=O)Nc2ccc3[nH]ncc3c2)C(c2ccc(F)cc2)N=C(c2ccc(C(F)(F)F)nc2)N1 (stereo not given)" unit_string=% value_measured=4.47
molecule=COc1ccccc1-c1cc(/C=C2\C(=O)Nc3ncc(Br)cc32)cc(Br)c1O unit_string=% value_measured=2.58
molecule=CCS(=O)(=O)c1ccc(OC)c(Nc2ncc(-c3cccc(C(C)=O)c3)o2)c1 unit_string=% value_measured=3.41
molecule=COc1cccc(-n2ncc3c(N/N=C/c4ccc(C(=O)NCCN(C)C)cc4)ncnc32)c1 unit_string=% value_measured=40.1

Below: the item to evaluate.
Exercise: Item under review: O=C1Nc2ccccc2/C1=C1\CCc2cc(O)ccc21 . Reported inhibition?
Solution: 10.2
